assay_summary: amyloid nucleation score (Sup35N fusion, yeast selection) (log enrichment); library NNK2; higher = more nucleation; inactive = no reads after selection;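 also: zero at mode of non-aggregating sequences after 7 days selection at 30°C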
property: amyloid nucleation score
Simply state the number, no unit and no words.

# count of solved cases: 2
[
  {
    "substance": "YQFTGFLLGRVIASIIRHGV",
    "property": "amyloid nucleation score",
    "numeric_value": 0.023
  },
  {
    "substance": "PYELCDRTVRMSFWVTVWGH",
    "property": "amyloid nucleation score",
    "numeric_value": 0.281
  }
]

Prompt line: amyloid nucleation score for `SREYDCYLWRNLVWNCWMNW` ?
Response line: 5.64

Prompt line: amyloid nucleation score for `VSNYMIVKIQWFHIVVGPGL` ?
Response line: 5.6
